target: androgen receptor (adenovirus AdEasy+rAR in L929 cells) (Rattus norvegicus, UniProt P15207); construct: expressed in transfected cells; experiment: L929 Androgen Receptor Functional Assay, Adenovirus Transduction; format: cell-based; conditions: L929 agonist testing; 3000 nM
Sequence (P15207 whole entry S389L): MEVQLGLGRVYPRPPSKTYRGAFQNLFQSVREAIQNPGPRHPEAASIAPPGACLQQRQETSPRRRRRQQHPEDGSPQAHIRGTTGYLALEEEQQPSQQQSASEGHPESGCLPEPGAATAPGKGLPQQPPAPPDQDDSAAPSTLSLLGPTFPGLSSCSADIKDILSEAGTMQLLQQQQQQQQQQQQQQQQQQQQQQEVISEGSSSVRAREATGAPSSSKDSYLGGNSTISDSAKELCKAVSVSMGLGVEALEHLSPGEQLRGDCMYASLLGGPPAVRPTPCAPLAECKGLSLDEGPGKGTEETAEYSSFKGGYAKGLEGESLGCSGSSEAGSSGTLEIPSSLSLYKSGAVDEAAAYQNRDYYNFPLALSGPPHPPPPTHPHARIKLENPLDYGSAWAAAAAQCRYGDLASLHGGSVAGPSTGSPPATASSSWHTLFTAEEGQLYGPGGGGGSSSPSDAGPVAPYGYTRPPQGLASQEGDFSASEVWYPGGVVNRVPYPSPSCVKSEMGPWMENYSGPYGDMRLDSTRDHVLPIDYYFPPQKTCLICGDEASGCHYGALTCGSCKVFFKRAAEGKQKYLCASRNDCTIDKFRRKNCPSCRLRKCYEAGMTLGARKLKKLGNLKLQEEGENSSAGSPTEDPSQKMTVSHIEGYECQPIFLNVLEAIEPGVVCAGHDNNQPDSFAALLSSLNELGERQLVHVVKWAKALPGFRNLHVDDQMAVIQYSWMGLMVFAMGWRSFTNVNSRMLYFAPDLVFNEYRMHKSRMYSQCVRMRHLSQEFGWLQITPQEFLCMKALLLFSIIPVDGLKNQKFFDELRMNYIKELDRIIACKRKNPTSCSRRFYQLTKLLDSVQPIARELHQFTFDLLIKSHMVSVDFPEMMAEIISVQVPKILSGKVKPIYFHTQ
# reported % Activity; entries follow
// units = %; emit number, no label

# Compound, % Activity [%]
measured = [
    ("CC(O)(CSc1ccc(N)cc1)c1cc2cc(Cl)c(C(F)(F)F)cc2[nH]1 (stereo not drawn) [compound 104]", 9),
    ("CC(O)(CS(C)(=O)=O)c1cc2cc(Cl)c(C(F)(F)F)cc2[nH]1 (stereo not drawn) [compound 138]", 0),
]

Here is another compound to look at.
The reported value for CC[S+]([O-])CC(C)(O)c1[nH]c2cc(C(F)(F)F)c(C#N)cc2c1C (stereo not drawn) [compound 252] in terms of % Activity is 1
